Hey, just so you know, these numbers are from the COVID Moonshot data (paper PMC11187573).

- target.system: SARS-CoV-2 Main Protease (SARS-CoV-2) (UniProt P0DTD1)
- experimental.conditions: 50.0 µM
attribute.measured: inhibition

>>> endpoint_result("CC(C)CCC(=O)C[C@H]1c2ccccc2C(=O)N1c1ccc2ccc(Cl)nc2n1 (stereo in doubt)")
"-0.676%"
>>> endpoint_result("C=CC(=O)N1CCN(C(=O)c2cccc(Cl)c2)CC1")
"5.55%"
>>> endpoint_result("C=CC(=O)N(c1ccc(C(C)(C)C)cc1)C(C(=O)Nc1ccc(F)cc1)c1cccnc1 (centres undefined)")
"36%"

Query: API: value(readout=inhibition, system=SARS-CoV-2 Main Protease (SARS-CoV-2) (UniProt P0DTD1)) for record "O=C(Nc1c[nH]nc1-c1ccccn1)c1cccc2nccn12"
Result: 9.01%

###

Reported inhibition by item:
- target.system: SARS-CoV-2 Main Protease (SARS-CoV-2)
- experimental.conditions: 20.0 µM
Response body: numeric value in %, unit text excluded.

Use these answered entries as a reference point.
>>> endpoint_result("O=C(CCl)N1CCOc2cccc(-c3cccnc3)c21")
1.76
>>> endpoint_result("CCC(C)CC(=O)N1CCCC(NC(=O)Cn2c(C)cc(C)nc2=O)CC1 (stereo not given)")
-4.95
>>> endpoint_result("CS(=O)(=O)N(CCc1ccccc1)CC1CCN(C(=O)CCl)CC1")
23.9
>>> endpoint_result("COc1ccc(NC(=O)c2ccc(C(=N)N(C)C)cc2)c(C(=O)Nc2ccc(Cl)cn2)c1")
-17.3

Please find the next compound below.
Query: API: value(readout=inhibition, system=SARS-CoV-2 Main Protease (SARS-CoV-2)) for record "NCc1cn(CC(=O)N(Cc2ccsc2)c2ccc(N3CCOCC3)cc2)nn1"
Result: -4.16

###

- target.system: SARS-CoV-2 Main Protease (SARS-CoV-2)
Reported IC50 by item:
Response body: numeric value in µM, unit text excluded.

Use these answered entries as a reference point.
>>> endpoint_result("O=C(CCl)N1CCN(S(=O)(=O)c2cccc(F)c2)CC1")
4.55
>>> endpoint_result("O=C(Cc1cc(Cl)cc2c1OCC2)Nc1cncc2ccccc12")
1.45
>>> endpoint_result("CC1CN(C)CCN1C(=O)CC1(C(=O)Nc2cncc3ccccc23)CCOc2ccc(Cl)cc21 (centres undefined)")
6.18
>>> endpoint_result("CC(NC(=O)Cc1ccc(-n2cnnn2)cc1)(C(=O)Nc1cncc2ccccc12)c1ccc(Cl)c(Cl)c1 (centres undefined)")
4.64
>>> endpoint_result("CCN(Cc1ccc(F)cc1)c1cc(Cl)cc(CC(=O)Nc2cncc3ccccc23)c1")
1.41

Query: Name the recorded IC50 for "Cc1ccc2nc(Nc3cc(Cl)cc(CC(=O)Nc4cncc5ccccc45)c3)sc2c1" .
Result: 0.45

Query: Note, next up: O=C(Nc1cncc2ccccc12)[C@H]1COc2ccc(Cl)cc21 (stereo in doubt)
Result: 26.9

Query: Note, next up: O=C(CC1(C(=O)Nc2cncc3ccccc23)CCOc2ccc(Cl)cc21)N1CCOCC1CC(F)F (centres undefined)
Result: 9.84

Query: Note, next up: "COc1ccc(-c2cc(COc3cc(Cl)cc(CC(=O)Nc4cnccc4C)c3)on2)cc1"
Result: 71.5

###

- target.system: SARS-CoV-2 Main Protease (SARS-CoV-2) (UniProt P0DTD1)
- experimental.conditions: 20.0 µM
attribute.measured: inhibition (%)
Response body: numeric value in %, unit text excluded.

Use these answered entries as a reference point.
>>> endpoint_result("CC(C)Cn1cc(NC(=O)Nc2cccnc2)c2ccccc2c1=O")
6.1
>>> endpoint_result("CC1CN(Cc2ccccc2NC(=O)NCc2cnsc2)CC(C)O1 (centres undefined)")
1.48
>>> endpoint_result("Cc1ccn2c(-c3ccc4[nH]ncc4c3)c(-c3ccc(F)cc3)nc2c1")
0.801
>>> endpoint_result("CCN1CCN(Cc2ccccc2CNC(=O)[C@@]2(C)CCN2C(=O)OC(C)(C)C)CC1 (stereo in doubt)")
-6.3
>>> endpoint_result("Cc1ccncc1NC(=O)CCc1ccccn1")
-0.904
>>> endpoint_result("CC(=O)N[C@@H](Cc1ccc(O)cc1)C(=O)NCc1ccc(Br)cc1 (stereo in doubt)")
-20.1
>>> endpoint_result("COc1ccnc(NC(=O)Cc2ccc3ccccc3c2)c1")
3.47
>>> endpoint_result("COc1ccc(OC)c(CNC(=O)Nc2cn(CC(C)C)c(=O)c3ccccc23)c1")
18.5
>>> endpoint_result("CC(=O)N1CCN(C(=O)Cc2ccccn2)CC1")
-0.517
>>> endpoint_result("O=C(Nc1ccc([N+](=O)[O-])cc1Cl)c1cccc(Cl)c1")
-10.8

Query: Name the recorded inhibition for "COc1ccc(N2CCN(C(=O)c3cc(=O)[nH]c4ccccc34)CC2)cc1" .
Result: 61.4

Query: Note, next up: "Cc1nnn(C)c1NC(=O)Cc1cccc(Cl)c1"
Result: -9.24

Query: Note, next up: "O=C(Cc1cccc(Cl)c1)Nc1cnns1"
Result: 4.12

Query: Note, next up: "Cc1cccnc1NC(=O)Nc1cn(CC(C)C)c(=O)c2ccccc12"
Result: -0.204

###

Reported relative solubility at 20 uM by item:
- experimental.conditions: 20.0 µM
Keep it simple and answer with nothing but the number.

>>> endpoint_result("Cc1nnc(NC(=O)Cc2cccc(Cl)c2F)s1")
0.99
>>> endpoint_result("N#Cc1cnn(-c2ccccc2NC(=O)Cc2ccn[nH]2)c1N")
1
>>> endpoint_result("C=CC(=O)N(c1ccc(C(C)(C)C)cc1)C(C(=O)NCCCC(=O)OCC)c1cccnc1 (configuration not stated)")
0.99
>>> endpoint_result("Cc1ccncc1NC(=O)CCc1nc2cc(Cl)ccc2o1")
0.99
>>> endpoint_result("C=CC(=O)N(c1ccc(SC)cc1)C(C(=O)Nc1ccc(Cl)cc1)c1cccnc1 (configuration not stated)")
0.81

Query: Name the recorded relative solubility at 20 uM for O=C(NCC1COc2ccccc2O1)c1cc(=O)[nH]c2cc(F)ccc12 (configuration not stated) .
Result: 0.98

Query: Note, next up: C=CC(=O)N(c1ccc(C(C)(C)C)cc1)C(C(=O)Nc1ccc(OC)cc1OC)c1cccnc1 (configuration not stated)
Result: 0.98

###

- target.system: SARS-CoV-2 Main Protease (SARS-CoV-2)
attribute.measured: pIC50
Lab note — pIC50 values are minus log10 of concentrations in M.

>>> endpoint_result("C=CC(=O)N(c1ccc(C(C)(C)C)cc1)C(C(=O)NCCSC)c1cccnc1 (stereo not given)")
4.18
>>> endpoint_result("COc1ccc(N(Cc2cccc(Cl)c2)C(=O)Cn2nnc3ccccc32)cc1")
5.25
>>> endpoint_result("Cc1ccncc1NC(=O)Nc1cccc(Cl)c1")
4.34
>>> endpoint_result("C=CC(=O)N(c1ccc(C(C)(C)C)cc1)C(C(=O)NCCc1cccc(F)c1)c1cncc(C#N)c1 (stereo not given)")
5.61
>>> endpoint_result("N#Cc1ccc(CN2C(=O)C(=O)c3cccc(Br)c32)c(F)c1")
4.84

Query: Name the recorded pIC50 for "O=C(CCl)N1CCN(S(=O)(=O)c2ccc(Cc3cccc4ccccc34)cc2)CC1" .
Result: 4.82

Query: Note, next up: C=CC(=O)N(c1ccc(C(C)(C)C)cc1)C(C(=O)NCCCSC)c1cccnc1 (stereo not given)
Result: 4.86

Query: Note, next up: Cc1ccncc1NC(=O)Cc1cc(Cl)cc(NC2CCC(F)(F)C2O)c1 (stereo not given)
Result: 4.59

Query: Note, next up: "Cc1cc(Cl)cc(CC2CCN(C(=O)CCl)CC2)c1"
Result: 5.91

Query: Note, next up: O=C(Nc1nncn1C1CC1)C1CCS(=O)(=O)c2ccccc21 (stereo not given)
Result: 4.57

###

- target.system: SARS-CoV-2 Main Protease (SARS-CoV-2) (UniProt P0DTD1)
- experimental.conditions: 20.0 µM
attribute.measured: inhibition (%)
Response body: numeric value in %, unit text excluded.

>>> endpoint_result("CCc1nnnn1-c1ccccc1NC(=O)C1(c2cncc(Br)c2)CC1")
0
>>> endpoint_result("C=CC(=O)N(c1ccc(C(C)(C)C)cc1)C(C(=O)N[C@H]1CC[C@@H](C(=O)OC)C1)c1cccnc1 (stereo in doubt)")
0
>>> endpoint_result("O=C(Cn1nnc2ccccc21)NCc1ccc(Oc2cccnc2)c(F)c1")
0
>>> endpoint_result("C=CC(=O)N(c1ccc(C(C)(C)C)cc1)C(C(=O)NC(C)(C)C)c1cncc(C(C)(F)F)c1 (stereo not drawn)")
0
>>> endpoint_result("CC(OCC1CCCCO1)C(=O)N(CCc1ccccc1)Cc1cccnc1 (stereo not drawn)")
0
>>> endpoint_result("C=CC(=O)N(c1ccc2ncsc2c1)C(C(=O)Nc1ccc(Br)cc1)c1cccnc1 (stereo not drawn)")
3.05
>>> endpoint_result("C=CC(=O)N(c1ccc(C(C)(C)C)cc1)C(C(=O)NC(C)(C)C)c1cccnc1 (stereo not drawn)")
0
>>> endpoint_result("C=CC(=O)N(c1ccc(C(C)(C)CC)cc1)C(C(=O)Nc1ccccc1Br)c1cccnc1 (stereo not drawn)")
0

Query: Name the recorded inhibition for "O=C(Nc1cnccc1Cl)c1cccc(Cl)c1" .
Result: 0

Query: Note, next up: "CNC(=O)OC1CCN(C(=O)c2ccccc2)CC1"
Result: 0

Query: Note, next up: C=CC(=O)N(c1ccc(C(C)(C)C)cc1)C(C(=O)NC(C)(C)C)c1cnc[nH]1 (stereo not drawn)
Result: 0

Query: Note, next up: "CNCc1c[nH]c2ccc(F)cc12"
Result: 3.09

Query: Note, next up: C=CC(=O)N(c1ccc(C(C)(C)C)cc1)C(C(=O)NC1CC(C(=O)OC)C1)c1cccnc1 (stereo not drawn)
Result: 0

Query: Note, next up: O=C(CCl)N1CC2CC1CN2Cc1cccc(Cl)c1 (stereo not drawn)
Result: 100
